The measured values listed here are drawn from patent US8461328B2.

target: JAK3 (Homo sapiens, UniProt P52333); construct: made in house; host or cells: SF9 insect cells (baculovirus); assay: JAK3 inhibition (Table 4); assay type: biochemical; conditions: read-out: JAK3 Ki
Sequence (P52333 783-1124): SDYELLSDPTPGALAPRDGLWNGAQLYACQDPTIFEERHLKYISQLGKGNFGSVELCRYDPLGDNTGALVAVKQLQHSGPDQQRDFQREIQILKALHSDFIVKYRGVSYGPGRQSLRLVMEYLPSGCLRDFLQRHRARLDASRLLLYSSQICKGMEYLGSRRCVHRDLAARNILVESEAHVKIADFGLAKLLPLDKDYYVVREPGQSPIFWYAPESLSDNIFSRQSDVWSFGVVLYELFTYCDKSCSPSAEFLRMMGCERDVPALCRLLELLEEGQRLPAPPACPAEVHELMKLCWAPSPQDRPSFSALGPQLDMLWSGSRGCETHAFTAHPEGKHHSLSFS
property name: Ki (nM)
Please state the figure in nM; there is no need to write the unit.

CNC(=O)N(C)[C@H]1CC[C@H](n2c(C)nc3cnc4[nH]ccc4c32)CC1 :: 158
O=S(=O)(CCC(F)(F)F)NCCc1nc2cnc3[nH]ccc3c2n1C1CCCCC1 :: 65.5
Cc1nc(CN2CCC(n3c([C@@H](C)O)nc4cnc5[nH]ccc5c43)CC2)n(C)c1C :: 1460
OCc1nc2cnc3[nH]ccc3c2n1C1CCN(CC(F)F)CC1 :: 13.2
CC1CN(CCC#N)CCC1n1cnc2cnc3[nH]ccc3c21 (racemic) [Example 324] :: 5.2
O=C(N[C@H]1CC[C@H](n2c(CO)nc3cnc4[nH]ccc4c32)CC1)OCC1CC1 :: 111

// Ki value for OCc1nc2cnc3[nH]ccc3c2n1C1CCN(CCF)CC1 : 23.2

// Ki value for N#CCCN1CCC(n2c(CC(N)=O)nc3cnc4[nH]ccc4c32)CC1 : 14.1

// Ki value for CCOC(=O)NCCc1nc2cnc3[nH]ccc3c2n1C1CCN(CC)CC1(F)F (stereo not drawn) [Example 678] : 23.6

// Ki value for O[C@@H]1CC[C@@H](n2cnc3cnc4[nH]ccc4c32)C1 : 15.8

// Ki value for O=C(NC1CCC(n2cnc3cnc4[nH]ccc4c32)CC1)N1CCC1 (stereo not drawn) : 183

// Ki value for CC(C)C(=O)NCCc1nc2cnc3[nH]ccc3c2n1C1CCN(CCC#N)CC1 : 61.3

// Ki value for Cc1nc2cnc3[nH]ccc3c2n1C1CCN(C(=O)NCCC(F)(F)F)CC1 : 2210

// Ki value for CS(=O)(=O)N1CCC(n2cnc3cnc4[nH]ccc4c32)CC1 : 84.1

###

Documented log10 Ki across a set of molecules
target: JAK2 (Homo sapiens); construct: made in house; host or cells: SF9 insect cells (baculovirus); assay: JAK2 inhibition (Table 4); type: biochemical; conditions: read-out: JAK2 Ki
Sequence (O60674 812-1132): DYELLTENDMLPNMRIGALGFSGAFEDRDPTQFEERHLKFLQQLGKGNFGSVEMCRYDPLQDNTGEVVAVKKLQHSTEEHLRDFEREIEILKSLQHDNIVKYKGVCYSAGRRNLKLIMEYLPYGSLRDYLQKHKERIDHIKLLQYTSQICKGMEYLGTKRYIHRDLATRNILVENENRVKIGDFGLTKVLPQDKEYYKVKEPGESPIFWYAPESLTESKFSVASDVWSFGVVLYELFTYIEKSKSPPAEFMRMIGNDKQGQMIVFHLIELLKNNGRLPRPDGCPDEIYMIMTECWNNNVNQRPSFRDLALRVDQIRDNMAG
log10 Ki, nM

Please review the following examples before continuing.
c1cc2c(ncc3ncn(C4CCCOC4)c32)[nH]1 (single isomer, unassigned) [Example 466] :: 1.39
N#CCC(=O)N1CCCC(n2cnc3cnc4[nH]ccc4c32)CC1 (racemic) [Example 485] :: 0.28
c1ccc(CN2CCC(n3c(CN4CCOCC4)nc4cnc5[nH]ccc5c43)CC2)cc1 [Example 155] :: 2.66
CCOC(=O)NCc1nc2cnc3[nH]ccc3c2n1C1CCN(CCC#N)CC1 [Example 493] :: 1.56
c1ncc(CN[C@H]2CC[C@@H](n3cnc4cnc5[nH]ccc5c43)CC2)cn1 [Example 333] :: 1.40

// log10 Ki value for CS(=O)(=O)NCc1nc2cnc3[nH]ccc3c2n1[C@@H]1CCCOC1 [Example 866] : 2.78

// log10 Ki value for COCCNC(=O)N(C)[C@H]1CC[C@H](n2cnc3cnc4[nH]ccc4c32)CC1 [Example 592] : 1.19

// log10 Ki value for c1cc2c(ncc3ncn([C@H]4CCCNC4)c32)[nH]1 [Example 364] : 2.25

// log10 Ki value for Cc1nc2cnc3[nH]ccc3c2n1[C@H]1CC[C@H](CO)CC1 [Example 633] : 0.52

// log10 Ki value for N#CCC(=O)N1CCC[C@@H](n2c(C(F)(F)F)nc3cnc4[nH]ccc4c32)C1 [Example 302] : 1.14

// log10 Ki value for N#Cc1cccc(CN2CCC(n3cnc4cnc5[nH]ccc5c43)CC2)c1 [Example 49] : -0.01

// log10 Ki value for C[C@@H](N)c1nc2cnc3[nH]ccc3c2n1C1CCCOC1 (single isomer, unassigned) [Example 669] : 2.96
